target: PAR2 (HT-29 cells, SLIGKV activation) (Homo sapiens, UniProt P55085); construct: host or cells: HT-29 cells; test: Ca FLIPR TETRA assay, ANTAGONIST mode, stimulation with 8 μM SLIGKV; format: cell-based; conditions: HT-29 cells, antagonist mode, 8 μM SLIGKV
Sequence (P55085 26-397): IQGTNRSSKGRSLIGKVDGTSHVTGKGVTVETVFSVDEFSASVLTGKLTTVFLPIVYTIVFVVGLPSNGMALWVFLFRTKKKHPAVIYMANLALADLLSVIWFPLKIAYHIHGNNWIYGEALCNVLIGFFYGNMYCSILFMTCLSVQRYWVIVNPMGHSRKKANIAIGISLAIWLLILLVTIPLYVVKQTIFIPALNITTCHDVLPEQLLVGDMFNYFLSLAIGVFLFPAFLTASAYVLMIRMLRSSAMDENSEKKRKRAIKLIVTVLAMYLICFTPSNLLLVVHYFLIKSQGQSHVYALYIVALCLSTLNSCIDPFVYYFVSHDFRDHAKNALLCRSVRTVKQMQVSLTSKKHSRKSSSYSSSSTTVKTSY
Consider the following molecules; for each one, report its pIC50.
By convention, pIC50 is the negative base-10 log of a molar concentration.

Sample CC(C)(C)c1cc(-c2ccc(F)cc2)nn2cc(C(=O)N3CCN(C(=O)C45CC(C(=O)O)(C4)C5)CC3(C)C)nc12 ; pIC50 observed: 7.70

Sample CC1(C)C(=O)NCCN1C(=O)c1cn2nc(-c3ccc(F)cc3)cc(-c3cccnc3)c2n1 ; pIC50 observed: 6.28

Sample CC(C)(CC(=O)N1CCN(C(=O)c2cn3nc(-c4ccc(F)cc4)cc(C(C)(C)C)c3n2)C(C)(C)C1)C(=O)O ; pIC50 observed: 9.30

Sample CC(C)(C)c1cc(-c2ccc(F)cc2)nn2cc(C(=O)N3CN(C(C)(C)C)C(=O)C3(C)C)nc12 ; pIC50 observed: 6.90
